Assay: The drug is tested on Blautia luti strain: DSM14534 for biotransformation. The drug concentrations were measured before and after a 12-h incubation by liquid-chromatography-coupled mass spectrometry (LC–MS)
Format: ADME
Parameters: dose 2 uM, timepoint 0 vs 12 hours
Details: 2 µM
Reported endpoint: Bacterial Biotransformation

For orientation, consider the following solved cases.
>>> assay_value("CC(C)c1c(CN(C)C(C)Cc2ccccc2)n(C)n(-c2ccccc2)c1=O (configuration not stated) [FAMPROFAZONE]")
"Compound NOT metabolized"
>>> assay_value("CS(=O)(=O)O.OC(CCN1CCCCC1)(c1ccccc1)c1ccccc1 [PRIDINOL METHANESULFONATE]")
"Compound NOT metabolized"
>>> assay_value("O=C1[C@H](CC[C@H](O)c2ccc(F)cc2)[C@@H](c2ccc(O)cc2)N1c1ccc(F)cc1 [EZETIMIBE]")
"Compound NOT metabolized"
>>> assay_value("NS(=O)(=O)c1cc2c(cc1Cl)N=C(CSCc1ccccc1)NS2(=O)=O [BENZTHIAZIDE]")
"Compound NOT metabolized"
>>> assay_value("CN1CCN(C2=Nc3ccccc3Oc3ccc(Cl)cc32)CC1.O=C(O)CCC(=O)O [LOXAPINE SUCCINATE]")
"Compound NOT metabolized"

Entry under review: CN1CCC(OC(c2ccccc2)c2ccccc2)CC1 . Reported Bacterial Biotransformation? Compound NOT metabolized

Query (compound): OCCN1CCN(CCCN2c3ccccc3Sc3ccc(C(F)(F)F)cc32)CC1 [FLUPHENAZINE] ; field requested: Bacterial Biotransformation Compound NOT metabolized

So what's the measured Bacterial Biotransformation for this one? CCCCCCOC(=O)/N=C(/N)c1ccc(NCc2nc3cc(C(=O)N(CCC(=O)OCC)c4ccccn4)ccc3n2C)cc1.CS(=O)(=O)O [DABIGATRAN ETEXILATE MESYLATE] Compound NOT metabolized

Find the recorded Bacterial Biotransformation belonging to CC(=O)OCC(=O)[C@@]1(O)[C@@H](C)C[C@H]2[C@@H]3CCC4=CC(=O)C=C[C@]4(C)[C@@]3(F)[C@@H](O)C[C@@]21C [BETAMETHASONE ACETATE] and report it. Compound NOT metabolized

Requested field: Bacterial Biotransformation. Item: Cc1cc2c(s1)Nc1ccccc1N=C2N1CCN(C)CC1 [OLANZAPINE] Compound NOT metabolized

Record request: Bacterial Biotransformation value, item C[C@@H]1C[C@H]2[C@@H]3CCC4=CC(=O)C=C[C@]4(C)[C@@]3(F)[C@@H](O)C[C@]2(C)[C@@]1(O)C(=O)CO [DEXAMETHASONE] Compound NOT metabolized

Endpoint output: Bacterial Biotransformation of CN1CCC(=C2c3ccccc3CC(=O)c3sccc32)CC1.O=C(O)/C=C/C(=O)O [KETOTIFEN FUMARATE] . Value? Compound NOT metabolized

Data request, read-out Bacterial Biotransformation, for CC[C@@H](CO)NC(=O)[C@@H]1C=C2c3cccc4c3c(cn4C)C[C@H]2N(C)C1.O=C(O)/C=C\C(=O)O [METHYSERGIDE MALEATE] Compound metabolized

Looking for the measured Bacterial Biotransformation of CNCCC(Oc1ccc(C(F)(F)F)cc1)c1ccccc1 (configuration not stated) [FLUOXETINE] , can you help? Compound NOT metabolized

If you can, please state the reported Bacterial Biotransformation value of Cc1nc2n(c(=O)c1CCN1CCC(c3noc4cc(F)ccc34)CC1)CCCC2 [RISPERIDONE] . Compound metabolized

Name the recorded Bacterial Biotransformation for CNC(=C[N+](=O)[O-])NCCSCc1csc(CN(C)C)n1 [NIZATIDINE] . Compound metabolized

Returns the measured Bacterial Biotransformation for the input compound. Input: COc1cc2nc(N(C)CCCNC(=O)C3CCCO3)nc(N)c2cc1OC (configuration not stated) [ALFUZOSIN] Compound NOT metabolized
